# Test system: UO-31
# assayDetails: NCI tumour cell line growth inhibition, 48 h
Calls of active or inactive are those of the source. Cut-off read from the data, not from the text of the source: active = GI50 up to about 1.1 µM and inactive = higher.
propertyLabel: GI50

Example cases with answers are listed next.
compound	GI50
O=C(O)c1ccc([N+](=O)[O-])c2cc3cnccc3nc12	23.3 µM (inactive)
COc1cc2c(cc1OC)CN1CCCc3cc(OC)c(OC)cc3C1C2 (stereo unspecified)	43.1 µM (inactive)
C/C(=N\NC(=S)NCCCNC(=S)N/N=C(\C)c1ccccn1)c1ccccn1	1.83 µM (inactive)
CN(CCCNC(=O)c1cc(-c2ccccc2)nc2ccccc12)CCCNC(=O)c1cc(-c2ccccc2)nc2ccccc12	2.31 µM (inactive)
C=CC(C)(O)/C=C/C=C(\C)C(CC1OC1(C)C)OC(=O)/C(C)=C\C (stereo unspecified)	> 100 µM (inactive)

input: Need GI50, item `Cc1cc(=O)oc2cc(SC(=O)N(C)C)ccc12`
output: > 100 µM (inactive)

input: Would you mind doing `CC(C)OC(=O)C1=C2c3ncccc3C(=O)N2[C@@H](Cl)[C@@H](Cl)[C@@H]1Cl` as well?
output: > 100 µM (inactive)

input: Would you mind doing `Cc1c(C)c2c(c(N)c1C#N)C(=O)N(N)C2=O` as well?
output: 93.3 µM (inactive)

input: Would you mind doing COc1cccc(C23CCCC(C2)N(C)CC3OC(=O)c2ccccc2)c1OC (stereo unspecified) as well?
output: > 100 µM (inactive)

input: Would you mind doing FC1(F)SC2CCCCCCCCCCC2C1(F)F (stereo unspecified) as well?
output: 78.2 µM (inactive)

input: Would you mind doing C=C1C(=O)OC2CC3(C)OC3CC/C(C)=C/C(OC(C)=O)C12 (stereo unspecified) as well?
output: 13.6 µM (inactive)

* * *

The reader will find reported GI50 values listed item by item below.
# Tested on: MDA-MB-435
# assayDetails: NCI tumour cell line growth inhibition, 48 h
Calls of active or inactive are those of the source. Rule as the data show it: active = GI50 up to about 1.1 µM and inactive = higher.

compound	propertyLabel	result
O=C(CCCCCCCCC(=O)N1C(=O)CC(=O)N(c2cccc(Cl)c2)C1=S)N1C(=O)CC(=O)N(c2cccc(Cl)c2)C1=S	GI50	59.8 µM (inactive)
CCOc1cc(C(c2c(O)c3ccccc3oc2=O)c2c(O)c3ccccc3oc2=O)ccc1OC	GI50	15.3 µM (inactive)
O=C(O)C1OC(n2cc(F)c(=O)[nH]c2=O)CC1O (stereo not given)	GI50	> 93.1 µM (inactive)
Cc1cn(Cc2cn(CC3OC(n4cc(C)c(=O)[nH]c4=O)CC3O)nn2)c(=O)[nH]c1=O (stereo not given)	GI50	> 100 µM (inactive)

input: Need GI50, item C/C(=C\CSCC(N)C(=O)O)CC/C=C(\C)CNc1ccccc1 (stereo not given)
output: > 100 µM (inactive)

* * *

# Tested on: SF-539
# assayDetails: NCI tumour cell line growth inhibition, 48 h
Active and inactive are the calls of the source. No stated cut-off is given here; in the data, active = GI50 up to about 1.1 µM and inactive = higher.
Give one outcome, nothing more. List: yes (1) for active, no (0) for inactive

Would you please look over these solved cases?
compound	measuredOn	assignedCategory
CCOP1(=O)OCC2OC(n3cnc4c(N)ncnc43)C(O)C2O1.c1ccccc1 (configuration not stated)	SF-539	no (0)
CC(C)(C)OC(=O)C1C(=O)NC(=O)CC1C(OCc1ccccc1)C(OCc1ccccc1)C(COCc1ccccc1)OCc1ccccc1 (configuration not stated)	SF-539	no (0)
O=C(NC1CCCCC1)c1c(O)[nH]c(=S)[nH]c1=O	SF-539	no (0)
Nc1ccc2ncc(Nc3ccc(F)cc3)nc2c1	SF-539	no (0)
CCOC(=O)/C(C(=S)NC)=C(/N)N1CCCC1	SF-539	no (0)

input: Please let me know the test result on file for `CC1(C)CC(=O)C2=C(C1)NC1=C(C2)C(=O)CC(C)(C)C1` .
output: no (0)

input: Would you mind doing `Fc1ccc(/N=N/N2CCCC2)cc1` as well?
output: no (0)

input: Would you mind doing `COc1cc2ccnc(C#N)c2cc1OCc1ccccc1` as well?
output: no (0)

input: Would you mind doing `O=Cc1cn(S(=O)(=O)c2ccccc2)c2ccccc12` as well?
output: no (0)

input: Would you mind doing `O=C1CCCC2=C1CC1=C(CCCC1=O)N2c1ccc(Cl)cc1` as well?
output: no (0)

input: Would you mind doing CCOC(=O)CCC(NC(=O)c1ccc(Oc2nc3ccccc3nc2-c2ccccc2)cc1)C(=O)OCC (configuration not stated) as well?
output: no (0)

input: Would you mind doing `O=[N+]([O-])c1cn[n+]([O-])c2ccccc12` as well?
output: no (0)

input: Would you mind doing `COc1ccc(CCNC(=O)Cc2ccccc2CO)cc1OC` as well?
output: no (0)

input: Would you mind doing `Nc1nc(S)c2c(N)n[nH]c2c1C(=O)Nc1ccc(Cl)cc1` as well?
output: no (0)

input: Would you mind doing COC(C(=O)NN)c1ccccc1 (configuration not stated) as well?
output: no (0)

input: Would you mind doing `Cn1c(=O)c2nc(N3CCCCC3)cnc2n(C)c1=O` as well?
output: no (0)

input: Would you mind doing Cn1c(C2CC(C)(C)c3c2c2ccccc2n3C)cc2ccccc21 (configuration not stated) as well?
output: no (0)

Values were extracted from ChEMBL document CHEMBL1201862.
